Source of measurements: the Deep4Chem optical property database

Assay: solvent given as SMILES
Conditions: in C1CCOC1
Criterion: fluorescence lifetime strictly under 3 ns. Met: condition met. Not met: condition not met.

Would you please look over these solved cases?
compound	assigned.class
COc1ccc(C#Cc2ccc(-c3nn[nH]n3)cc2)cc1OC	condition met
CCn1c2ccccc2c2cc(-c3cc(-c4ccc5c(c4)c4ccccc4n5CC)nc(-c4ccc(C#N)cc4)n3)ccc21	condition not met
CC(=O)O[B-]1(OC(C)=O)OC(/C=C/C=C/c2ccccc2)=CC(/C=C/C=C/c2ccccc2)=[O+]1	condition met

Q: Does the reported fluorescence lifetime of C(=C\c1ccc(N(c2ccc(/C=C/c3ccc(N(c4ccccc4)c4ccccc4)cc3)cc2)c2ccc(-c3nc4ccccc4nc3-c3ccc(N(c4ccc(/C=C/c5ccc(N(c6ccccc6)c6ccccc6)cc5)cc4)c4ccc(/C=C/c5ccc(N(c6ccccc6)c6ccccc6)cc5)cc4)cc3)cc2)cc1)/c1ccc(N(c2ccccc2)c2ccccc2)cc1 stay below 3 ns?
Result: condition met

Q: Threshold test, fluorescence lifetime < 3 ns: CCCCCCCCCCCCCCCCOc1cc(C#Cc2ccc3ccccc3c2)c(OCCCCCCCCCCCCCCCC)cc1C#Cc1ccc(C=C(C#N)C#N)cc1
Result: condition met

Q: Is 3 ns strictly greater than the compound's reported fluorescence lifetime? compound: c1ccc(-c2cc(-c3ccc4ccc5c(-c6ccnc(-c7ccccn7)c6)ccc6ccc3c4c65)ccn2)nc1
Result: condition met

Q: Strictly below 3 ns: is that where fluorescence lifetime of NS(=O)(=O)c1ccc(N2N=C(c3ccc(O)cc3)CC2c2ccc(Br)cc2)cc1 (centres undefined) sits?
Result: condition met

Q: Dear reviewer, please state whether CCn1c2ccsc2c2c3nsnc3c3c4sccc4n(CC)c3c21 has fluorescence lifetime strictly beneath 3 ns.
Result: condition not met

Q: Could you please tell me whether fluorescence lifetime recorded for COCCN1C(=O)/C(=C/c2cccc(N(C)C)c2)N=C1C is less than 3 ns?
Result: condition not met

Q: Would you kindly verify if fluorescence lifetime of COc1cc2[nH]c3c(c2cc1OCC(=O)O)CCCC3=O is strictly less than 3 ns?
Result: condition met

* * *

Assay: solvent given as SMILES
Conditions: in CC#N
value.type: fluorescence lifetime (ns)
Give a bare numeral; the unit ns is implied.

compound	value.type	reported.value
COc1ccc(-c2csc(/C(C#N)=C/c3ccc(Cl)cc3Cl)n2)cc1	fluorescence lifetime	3.05

Lab note: C(=C\c1c2ccccc2cc2ccccc12)/c1cnc2ccccc2c1 gave fluorescence lifetime of 3

Field fluorescence lifetime (entry CC(=O)[B-]1(C(C)=O)OC(C)=CC(c2ccc3ccccc3c2)=[O+]1 ) reads 13.6

compound CCCCCCN(CCCCCC)c1ccc(C#Cc2ccc(C#N)cc2)cc1 , fluorescence lifetime observed: 1

* * *

Test: solvent given as SMILES
Conditions: in Cc1ccccc1
value.type: fluorescence lifetime (ns)
Answer with a number only, understood to be in ns.

compound	fluorescence lifetime / ns
CN(C)c1ccc(/C=C/C=C2\CC/C(=C\c3ccc(N(C)C)cc3)C2=O)cc1	0.36
CCCCC(CC)CN1C(=O)c2cc(Oc3ccc(C(C)(C)C)cc3)c3c4c(Cl)cc5c6c(cc(Cl)c(c7c(Oc8ccc(C(C)(C)C)cc8)cc(c2c37)C1=O)c64)C(=O)N(c1c(C(C)C)cccc1C(C)C)C5=O (configuration not stated)	6.73
COc1cc2c(cc1/C=C/C1=CC(=C(C#N)C#N)CC(C)(C)C1)c1ccccc1n2C	8.3

In the following, a different compound is considered.
Please fill in: fluorescence lifetime reported for N#Cc1cc(N2c3ccccc3Sc3ccccc32)cc(N2c3ccccc3Sc3ccccc32)c1 = 22.6
